Molecular target: UniProt:O95069
Sequence (O95069 1-322 isoform O95069-2): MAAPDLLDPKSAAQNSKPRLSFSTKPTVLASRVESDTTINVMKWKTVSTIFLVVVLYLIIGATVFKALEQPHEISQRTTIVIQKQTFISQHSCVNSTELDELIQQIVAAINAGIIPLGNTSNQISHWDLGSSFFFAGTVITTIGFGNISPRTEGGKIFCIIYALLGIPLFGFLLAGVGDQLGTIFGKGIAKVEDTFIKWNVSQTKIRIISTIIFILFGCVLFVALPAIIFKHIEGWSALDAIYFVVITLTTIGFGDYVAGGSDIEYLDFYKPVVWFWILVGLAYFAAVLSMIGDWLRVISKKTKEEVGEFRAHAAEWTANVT
Assay: BRET FL-PIP2 lipid binding assay, TREK-1-Nluc
pKd: −log10 of the molar value.
REPORTED ENDPOINT: pKd

1 = CSc1ccc2c(c1)N(CCC1CCCCN1C)c1ccccc1S2 (stereo not drawn)
2 = OCCN1CCN(CCCN2c3ccccc3Sc3ccc(C(F)(F)F)cc32)CC1
Query block: Lowest pKd? choose 1 or 2 Please reply using the label of the selected record.
Result block: 1

###

Target: TREK-1 (Homo sapiens)
Assay: BRET FL-PIP2 lipid binding assay, TREK-1-Nluc
Settings: 100 μM lipid, FL-PIP2 500 nM, TREK-1
REPORTED ENDPOINT: single-point competition with FL-PIP2

Reference set, count: 5
COMPOUND	REPORTED ENDPOINT	MEASURED RESULT
CCCCCCCC(=O)OC[C@H](COP(=O)([O-])OCC[N+](C)(C)C)OC(=O)CCCCCCC	single-point competition with FL-PIP2	no affinity
CCCCCCCCCCCCC/C=C/[C@@H](O)[C@@H](N)COP(=O)(O)O [S1P, sphingosine-1-phosphate]	single-point competition with FL-PIP2	no affinity
O=P(O)(O)O[C@@H]1[C@H](O)[C@H](O)[C@@H](OP(=O)(O)O)[C@H](OP(=O)(O)O)[C@H]1O [IP3, inositol triphosphate]	single-point competition with FL-PIP2	fail to compete
CCCCCCCC(=O)OC[C@H](CO)OC(=O)CCCCCCC	single-point competition with FL-PIP2	fail to compete
CCCCCCCCCCCCCCCCCC(=O)O	single-point competition with FL-PIP2	fail to compete

single-point competition with FL-PIP2 reading for CCCCCCCC(=O)OC[C@H](COP(=O)(O)OCCN)OC(=O)CCCCCCC : no affinity

GET /value?item= CCCCCCCC/C=C\CCCCCCCC(=O)OC[C@H](CO)OC(=O)CCCCCCC/C=C\CCCCCCCC &field=single-point competition with FL-PIP2 returns fail to compete

###

Target: TREK-1 (Homo sapiens, UniProt O95069)
Test: BRET FL-PIP2 lipid binding assay, TREK-1-Nluc
Settings: competition with FL-PIP2 (500 nM), detergent-purified TREK-1, BRET
pKd: −log10 of the molar value.
REPORTED ENDPOINT: pKd

STRUCTURE NOTATION	pKd
CCCCCCCC(=O)OC[C@H](COP(=O)(O)O)OC(=O)CCCCCCC	4.71
CCCCCCCC/C=C\CCCCCCCC(=O)OC[C@H](COP(=O)(O)O)OC(=O)CCCCCCC/C=C\CCCCCCCC	4.80

###

Target: Kir2.1 (Mus musculus)
Sequence (P35561 44-370): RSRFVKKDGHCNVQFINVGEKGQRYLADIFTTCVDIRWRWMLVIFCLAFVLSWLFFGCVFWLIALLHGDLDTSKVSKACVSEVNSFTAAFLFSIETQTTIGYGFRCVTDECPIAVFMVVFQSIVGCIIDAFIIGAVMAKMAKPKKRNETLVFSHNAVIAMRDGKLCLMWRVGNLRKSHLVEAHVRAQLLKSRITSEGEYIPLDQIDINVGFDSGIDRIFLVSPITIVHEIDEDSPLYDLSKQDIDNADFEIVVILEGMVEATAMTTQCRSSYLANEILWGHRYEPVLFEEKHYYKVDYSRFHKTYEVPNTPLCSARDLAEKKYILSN
Assay: BRET FL-PIP2 lipid binding assay, Kir2.1
Conditions: competition with FL-PIP2, Kir2.1
pKd: −log10 of the molar value.
REPORTED ENDPOINT: pKd

P = CCCCCCCC(=O)OC[C@H](COP(=O)(O)O)OC(=O)CCCCCCC [8:0 PA]
Q = CCCCCCCC(=O)OC[C@H](COP(=O)(O)O[C@@H]1[C@H](O)[C@H](O)[C@@H](OP(=O)(O)O)[C@H](OP(=O)(O)O)[C@H]1O)OC(=O)CCCCCCC [8:0 PIP2]
Query block: Would you let me know which has the greater pKd value, P or Q ? The response must carry the label of the picked entry.
Result block: Q
(Q: 6.10, P: 4.70)

###

Molecular target: TRAAK (Homo sapiens, UniProt Q9NYG8, N78Q/N82Q)
Sequence (Q9NYG8 1-300 isoform Q9NYG8-2 N104Q/N108Q limits assumed): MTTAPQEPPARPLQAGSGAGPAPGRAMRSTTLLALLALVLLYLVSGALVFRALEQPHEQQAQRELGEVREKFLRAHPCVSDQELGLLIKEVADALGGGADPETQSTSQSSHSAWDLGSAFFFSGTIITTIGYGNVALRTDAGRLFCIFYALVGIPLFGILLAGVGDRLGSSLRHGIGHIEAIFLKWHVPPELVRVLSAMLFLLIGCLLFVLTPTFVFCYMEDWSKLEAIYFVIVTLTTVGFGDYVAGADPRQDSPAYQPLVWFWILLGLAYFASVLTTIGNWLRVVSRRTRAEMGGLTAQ
Test: BRET FL-PIP2 lipid binding assay, TRAAK
Conditions: competition with FL-PIP2, TRAAK
pKd: −log10 of the molar value.
REPORTED ENDPOINT: pKd

P = CCCCCCCC(=O)OC[C@H](COP(=O)(O)O)OC(=O)CCCCCCC
Q = CCCCCCCC(=O)OC[C@H](COP(=O)(O)O[C@@H]1[C@H](O)[C@H](O)[C@@H](OP(=O)(O)O)[C@H](OP(=O)(O)O)[C@H]1O)OC(=O)CCCCCCC
Query block: Pick the one with the larger pKd: P vs Q Answer by quoting the chosen item's label.
Result block: Q
(Q: 5.85, P: 5.07)
